Kd tested on Cbl-b (residues 36-427) (Homo sapiens): recorded values
Sequence (Q13191 36-427): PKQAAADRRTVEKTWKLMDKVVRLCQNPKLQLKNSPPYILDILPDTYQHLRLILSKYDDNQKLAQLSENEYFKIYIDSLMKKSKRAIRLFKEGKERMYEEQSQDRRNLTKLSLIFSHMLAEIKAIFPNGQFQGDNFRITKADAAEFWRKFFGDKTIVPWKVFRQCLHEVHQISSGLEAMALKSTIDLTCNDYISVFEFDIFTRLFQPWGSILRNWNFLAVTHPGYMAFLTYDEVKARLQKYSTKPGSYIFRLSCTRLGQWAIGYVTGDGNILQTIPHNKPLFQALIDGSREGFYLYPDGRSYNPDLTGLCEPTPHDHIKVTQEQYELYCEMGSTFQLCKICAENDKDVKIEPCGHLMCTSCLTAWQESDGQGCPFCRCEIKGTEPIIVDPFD

Here is how some molecules turned out for Kd.
[
  {
    "Molecule": "C[C@H](Cc1nncn1C)c1cccc(NC(=O)c2cc(S(C)(=O)=O)cc(C3CC3)n2)c1 [Compound 198]",
    "Endpoint value": "100 to 300 nM"
  },
  {
    "Molecule": "COc1ccc(C(C)Sc2nncn2C)cc1NC(=O)c1ccc2ccccc2n1 (centres unmarked) [Compound 97]",
    "Endpoint value": "3000 to 10000 nM"
  },
  {
    "Molecule": "C[C@H](Sc1nncn1C)c1cccc(N2Cc3c(ccnc3Cl)C2=O)c1 [Compound 167]",
    "Endpoint value": "301 to 1000 nM"
  }
]

[Q] Observed Kd on Cbl-b (residues 36-427) (Homo sapiens) for C[C@H](Sc1nncn1C)c1cccc(NC(=O)c2cccc(C(F)(F)F)c2)c1 [Compound 29] , please.
[A] > 10000 nM

[Q] Observed Kd on Cbl-b (residues 36-427) (Homo sapiens) for Cc1ccc(C(=O)Nc2cccc([C@H](C)Sc3nncn3C)c2)nc1C(F)(F)F [Compound 61] , please.
[A] 100 to 300 nM

[Q] Observed Kd on Cbl-b (residues 36-427) (Homo sapiens) for C[C@H](Cc1nncn1C)c1cccc(NC(=O)c2cc(O[C@H]3CC[C@@H](O)C3)ccn2)c1 [Compound 206] , please.
[A] 301 to 1000 nM

[Q] Observed Kd on Cbl-b (residues 36-427) (Homo sapiens) for C[C@H](Cc1nncn1C)c1cc(-c2cn[nH]c2)nc(N2Cc3c(cccc3C(F)(F)F)C2=O)c1 [Example 684] , please.
[A] 1000 to 3000 nM

[Q] Observed Kd on Cbl-b (residues 36-427) (Homo sapiens) for C[C@@H](Sc1nncn1C)c1cccc(N2Cc3c(cccc3C(F)(F)F)C2=O)c1 [Compound 166b] , please.
[A] 3000 to 10000 nM

[Q] Observed Kd on Cbl-b (residues 36-427) (Homo sapiens) for C[C@H](Cc1nncn1C)c1cccc(NC(=O)c2n[nH]c3c2CCC3)c1 [Compound 313] , please.
[A] 301 to 1000 nM

[Q] Observed Kd on Cbl-b (residues 36-427) (Homo sapiens) for C[C@H](Sc1nncn1C)c1ccnc(NC(=O)c2cccc(C(F)(F)F)n2)c1 [Compound 102b] , please.
[A] 1000 to 3000 nM

[Q] Observed Kd on Cbl-b (residues 36-427) (Homo sapiens) for C[C@H](Cc1nncn1C)c1cccc(NC(=O)c2cc3cc(N4CCNCC4)ccc3cn2)c1 [Compound 472] , please.
[A] < 100 nM

[Q] Observed Kd on Cbl-b (residues 36-427) (Homo sapiens) for C[C@H](Cc1nncn1C)c1cccc(NC(=O)c2cc(C(F)(F)F)ccn2)c1 [Compound 184] , please.
[A] 3000 to 10000 nM

[Q] Observed Kd on Cbl-b (residues 36-427) (Homo sapiens) for C[C@H](Cc1nncn1C)c1cccc(NC(=O)c2cc(S(N)(=O)=O)cc(C(F)(F)F)n2)c1 [Compound 200] , please.
[A] 301 to 1000 nM

[Q] Observed Kd on Cbl-b (residues 36-427) (Homo sapiens) for CC(C)c1cccc(C(=O)Nc2cccc([C@H](C)Sc3nncn3C)c2)n1 [Compound 33] , please.
[A] 301 to 1000 nM

[Q] Observed Kd on Cbl-b (residues 36-427) (Homo sapiens) for C[C@H](Cc1nncn1C)c1cccc(NC(=O)c2cc3ccccc3cn2)c1 [Compound 182] , please.
[A] 301 to 1000 nM

[Q] Observed Kd on Cbl-b (residues 36-427) (Homo sapiens) for C[C@@H](c1cc2c(c(C(F)(F)F)c1)CN(c1cccc(C3(Cc4nncn4C)COC3)c1)C2=O)N1CCC(C)(F)CC1 [Example 553a] , please.
[A] < 100 nM

[Q] Observed Kd on Cbl-b (residues 36-427) (Homo sapiens) for Cn1cnnc1[C@@H](F)C1(c2cccc(N3Cc4c(cc(CN5CCC(F)CC5)cc4C(F)(F)F)C3=O)c2)COC1 [Example 670a] , please.
[A] < 100 nM

[Q] Observed Kd on Cbl-b (residues 36-427) (Homo sapiens) for Cn1cnnc1CC(C)(F)c1cccc(N2Cc3c(cccc3C(F)(F)F)C2=O)c1 (racemic) [Compound 298] , please.
[A] < 100 nM

[Q] Observed Kd on Cbl-b (residues 36-427) (Homo sapiens) for C[C@H](Sc1nncn1C)c1cccc(NC(=O)c2cc(C(F)(F)F)cc(C3CC3)n2)c1 [Compound 69] , please.
[A] 3000 to 10000 nM

[Q] Observed Kd on Cbl-b (residues 36-427) (Homo sapiens) for Cc1cc(C(=O)Nc2cccc([C@H](C)Cc3nncn3C)c2)nc(C(F)(F)F)n1 [Compound 194] , please.
[A] 100 to 300 nM

[Q] Observed Kd on Cbl-b (residues 36-427) (Homo sapiens) for CN[C@H]1CCN(C(=O)c2ccnc(C(=O)Nc3cccc([C@H](C)Cc4nncn4C)c3)c2)C1 [Compound 250] , please.
[A] 1000 to 3000 nM
